Tested on: Plasmodium falciparum
Test: Calibr Malaria Delayed Death Assay SOP
Format: functional, organism-based
Parameters: scale not given: in the data most compounds retested in dose-response had high values
Conditions: concentration 4.99e-06 (unit not given; other assays of the set use mol/L)
Screen size: about 38,000 compounds; about 1,200 (3.2%) showed an effect of 50% or more. The median lay at about -58%. The entries come from a sample that favours strong results as a whole.

# COMPOUND, UNIT_STRING, Percent Effect
data = [
    ("O=C(CNC(=O)N1CCN(c2cccc(Cl)c2)CC1)Nc1ccccn1", "%", -109.2),
    ("COc1ccc(-c2nc(CNC3CCc4nc(C)nn4C3)no2)cc1 (centres undefined)", "%", -54.43),
    ("CCC(=O)NCC(=O)NCc1cc(Br)ccc1OC(F)F", "%", 4.46),
    ("CC(C)(C(=O)NCCC(=O)O)c1cccc(Br)c1", "%", -14.62),
    ("Cl.NC(=O)N1CC2(CCNCC2)c2cc(Cl)ccc21", "%", -64.91),
    ("CN(C)[C@H]1CCCCN(Cc2cnc(NCc3ccccc3)nc2)C1", "%", -25.46),
    ("CN(C)C(=O)N1CC2(CCNCC2)c2cc(Cl)ccc21.Cl", "%", 23.36),
    ("COc1ccc(OC)c(Sc2ncccc2C(=O)N(C)CCC#N)c1", "%", -164.4),
    ("O=C(CCc1ccccn1)N1CCCC(N2CCNC2=O)C1 (centres undefined)", "%", -153),
    ("CC(C)(C(=O)NCCCC(N)=O)c1cccc(Br)c1", "%", -41.82),
    ("COC(=O)NCC(=O)NCC(C)(C)c1cccc(C(F)(F)F)c1", "%", 46.67),
    ("Cc1cnc(C(=O)N2CCCC(n3cccn3)C2)cn1 (centres undefined)", "%", -66.69),
    ("COc1ccccc1-c1ncc(CN2CCCC[C@H](N(C)C)C2)s1", "%", 69.91),
    ("COc1cc(CNc2ccc(C)c(Cl)c2)ccc1OCC(N)=O", "%", -61.06),
    ("CC(=O)Nc1nc(CS(=O)(=O)Cc2ccccc2)cs1", "%", -16.97),
    ("CC(C)Cc1noc(C2CCCN(C(=O)CCc3cnn(C)c3)C2)n1 (centres undefined)", "%", -27.67),
    ("CCC1=NN2C(=N)/C(=C\\c3cccn3-c3ccc(Cl)cc3)C(=O)N=C2S1", "%", 17.01),
    ("CN1Cc2c(C(=O)NC3CCCCC3)ncn2-c2ccccc2S1(=O)=O.O=C(O)C(F)(F)F", "%", -186.4),
    ("CCC(=O)NCC(=O)NCC(C)(C)c1cccc(Br)c1", "%", 86.82),
    ("O=C(O)C(F)(F)F.O=S(=O)(C1CC1)N1CCc2ncnc(N3CCCC3)c2CC1", "%", -107.1),
    ("Cc1cc(C(=O)N2CCCC(c3cc(C(F)(F)F)[nH]n3)C2)[nH]n1 (centres undefined)", "%", -117),
    ("COC(=O)NCC(=O)NCC(C)(C)c1cccc(Br)c1", "%", 84.11),
    ("c1cnn(CCNCc2cnc(N3CCCC3)nc2)c1", "%", -23.83),
    ("CCC(NC(=O)C1CCN(C(C)C)CC1)c1cn2cccnc2n1 (centres undefined)", "%", -73.6),
]
